- MEASURED TARGET: Integrin alpha-4 (Homo sapiens) (UniProt P13612)
- Sequence (P13612 whole entry, looked up): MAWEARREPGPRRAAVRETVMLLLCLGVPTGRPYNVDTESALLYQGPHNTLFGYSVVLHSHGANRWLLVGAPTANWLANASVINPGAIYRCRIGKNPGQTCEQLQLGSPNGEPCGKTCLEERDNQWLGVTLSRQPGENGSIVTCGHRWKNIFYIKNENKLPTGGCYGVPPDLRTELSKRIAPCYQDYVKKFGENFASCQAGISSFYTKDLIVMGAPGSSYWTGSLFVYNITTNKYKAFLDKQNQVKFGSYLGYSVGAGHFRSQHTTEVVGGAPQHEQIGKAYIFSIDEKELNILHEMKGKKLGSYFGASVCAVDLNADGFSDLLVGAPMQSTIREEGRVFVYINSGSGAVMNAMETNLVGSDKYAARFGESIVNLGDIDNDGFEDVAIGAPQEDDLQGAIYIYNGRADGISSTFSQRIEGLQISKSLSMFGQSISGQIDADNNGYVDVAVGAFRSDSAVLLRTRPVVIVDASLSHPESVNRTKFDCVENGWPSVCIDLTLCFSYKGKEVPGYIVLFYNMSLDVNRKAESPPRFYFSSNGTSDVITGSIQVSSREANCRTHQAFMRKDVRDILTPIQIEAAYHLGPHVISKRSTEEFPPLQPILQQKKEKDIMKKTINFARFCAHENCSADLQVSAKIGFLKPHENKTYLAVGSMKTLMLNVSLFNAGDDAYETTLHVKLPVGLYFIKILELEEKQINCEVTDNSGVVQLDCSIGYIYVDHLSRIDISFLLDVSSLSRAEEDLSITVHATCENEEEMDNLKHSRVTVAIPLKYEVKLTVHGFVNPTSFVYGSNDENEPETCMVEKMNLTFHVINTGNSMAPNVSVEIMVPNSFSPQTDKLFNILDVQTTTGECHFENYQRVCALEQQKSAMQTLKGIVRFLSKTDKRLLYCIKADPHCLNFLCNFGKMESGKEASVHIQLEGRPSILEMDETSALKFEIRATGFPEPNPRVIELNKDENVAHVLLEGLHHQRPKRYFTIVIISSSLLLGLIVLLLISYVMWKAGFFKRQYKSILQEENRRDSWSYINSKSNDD
- TEST METHOD NOTES: LDV-FITC off-rate from VLA-4, SAR follow-up, mechanism study for VLA-4 allosteric modulator project, U937 cells, flow cytometry (AID 488786)
- EXPERIMENTAL PARAMETERS: at 100 µM
Active and inactive are the calls of the source.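 How the source made its calls: active means compounds whose fitted off-rate of the fluorescent probe exceeds 0.05 per second; inactive means the rest.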
Bench note: report the call from yes = active, no = inactive

SMILES DATA: c1ccc2c(-c3ccc(OCCN4CCCC4)cc3)c(-c3ccsc3)sc2c1
ANSWER LABEL: no
--
SMILES DATA: c1ccc2c(-c3ccc(OCCN4CCCCC4)cc3)c(-c3ccsc3)sc2c1
ANSWER LABEL: no
--
SMILES DATA: COc1ccc(-c2sc3ccccc3c2-c2ccc(OCCN(C)C)cc2)cc1
ANSWER LABEL: yes

[ask] Would you mind telling me which call this test gave CN(C)CCOc1ccc(-c2c(-c3ccccc3)sc3ccccc23)cc1 ?
[reply] yes

[ask] What about c1ccc(-c2sc3ccccc3c2-c2ccc(OCCN3CCCC3)cc2)cc1 ?
[reply] yes

[ask] What about COc1cccc(-c2sc3ccccc3c2-c2ccc(OCCN3CCCC3)cc2)c1 ?
[reply] yes

[ask] What about COc1cccc(-c2sc3ccccc3c2-c2ccc(OCCN(C)C)cc2)c1 ?
[reply] yes
